# Test system: IL-8
# assayName: Glucocorticoid transrepression assay, IL-8 inhibition (TR)
# Type: cell-based
# testSettings: Homo sapiens; Table 3; NCl-H292 cells, TNFα 10 ng/ml
resultType: IC50

Specify reported IC50 for the compound shown: Cn1c(SCC(=O)[C@@]2(O)CCC3C4CCC5=Cc6oncc6C[C@]5(C)C4[C@@H](O)C[C@@]32C)nc2ccccc21 (stereo partly shown) [Compound 5]
401 to 1000 nM

====

# Tested on: IL-8
# assayName: Glucocorticoid transrepression assay, IL-8 inhibition (TR)
# Format: cell-based
# testSettings: Homo sapiens; Table 1; NCl-H292 cells, TNFα 10 ng/ml; read-out: IL-8 inhibition (TR) Emax % inhibition
Readings of Emax for the listed compounds

# count of solved cases: 6
compound	resultType	measValue
CC12Cc3cnn(-c4ccccc4)c3C=C1CCC1C2[C@@H](O)CC2(C)C1CC[C@]2(O)C(=O)COc1nc2ccccc2s1 (stereo partly shown)	Emax	> 80%
CC(C)(C)c1ccc(-n2ncc3c2C=C2CCC4C([C@@H](O)CC5(C)C4CC[C@]5(O)C(=O)CSc4ccccn4)C2(C)C3)cc1 (stereo partly shown)	Emax	< 60%
CC12Cc3cnn(-c4ccccn4)c3C=C1CCC1C2[C@@H](O)CC2(C)C1CC[C@]2(O)C(=O)CSc1ccc2ccccc2n1 (stereo partly shown)	Emax	< 60%
CC12Cc3cnn(-c4ccccc4)c3C=C1CCC1C2[C@@H](O)CC2(C)C1CC[C@]2(O)C(=O)CSc1nc2ccccc2o1 (stereo partly shown)	Emax	< 60%
Cn1nnnc1SCC(=O)[C@@]1(O)CCC2C3CCC4=Cc5c(cnn5-c5ccc(F)cc5)CC4(C)C3[C@@H](O)CC21C (stereo partly shown)	Emax	> 80%
CC12Cc3cnn(-c4ccccc4)c3C=C1CCC1C2[C@@H](O)CC2(C)C1CC[C@]2(O)C(=O)COc1nc2ccccc2[nH]1 (stereo partly shown)	Emax	> 80%

Supply Emax measured with IL-8 for CC12Cc3cnn(-c4ccc(F)cc4)c3C=C1CCC1C2[C@@H](O)CC2(C)C1CC[C@]2(O)C(=O)COc1nc2ccccc2[nH]1 (stereo partly shown) .
> 80%

Report measured Emax on IL-8; entry: CC12Cc3cnn(C4CCCCC4)c3C=C1CCC1C2[C@@H](O)CC2(C)C1CC[C@]2(O)C(=O)CSc1ncccn1 (stereo partly shown)
> 80%

Lab note: record Emax of CC12Cc3cnn(-c4ccccn4)c3C=C1CCC1C2[C@@H](O)CC2(C)C1CC[C@]2(O)C(=O)CSc1cnc2ccccc2n1 (stereo partly shown) tested on IL-8.
< 60%

The measured values listed here are drawn from patent US20120171126A1.
